# measured target: CD28 (Homo sapiens, UniProt P10747)
# protocol text: Jurkat/IL2 + CHO/OKT3 +/- PD-L1 reporter assay: PD-L1-dependent CD28 costimulation
# Assay type: cell-based
# Parameters: host or cells: Jurkat cells expressing an IL-2-luciferase reporter
# test settings: Table E17; consensus variants; Jurkat/IL2 + CHO/OKT3/PD-L1; 5.0 nM
measured parameter: Relative Luciferase Units (RLU), CD80 Cone 5.0 nM

molecule | reported value
H18Y/E35D/V68M/L85M/R94Q (protein, UniProt P33681 35-288, looked up, variant H18Y E35D V68M L85M R94Q) T-lymphocyte activation …: VIHVTKEVKEVATLSCGYNVSVEELAQTRIYWQKDKKMVLTMMSGDMNIWPEYKNRTIFDITNNLSIMILALRPSDEGTYECVVMKYEKDAFKQEHLAEVTLSVKADFPTPSISDFEIPTSNIRRIICSTSGGFPEPHLSWLENGEELNAINTTVSQDPETELYAVSSKLDFNMTTNHSFMCLIKYGHLRVNQTFNWNTTKQEHFPDNLLPSWAITLISVNGIFVICCLTYCFAPRCRERRRNERLRRESVRPV | 2215 RLU
H18Y/E35D/V68M/A71G/R94Q/E95V (protein, UniProt P33681 35-288, looked up, variant H18Y E35D V68M A71G R94Q E95V, Fc fusion) T-lymphocyte activation …: VIHVTKEVKEVATLSCGYNVSVEELAQTRIYWQKDKKMVLTMMSGDMNIWPEYKNRTIFDITNNLSIMILGLRPSDEGTYECVVLKYEKDAFKQVHLAEVTLSVKADFPTPSISDFEIPTSNIRRIICSTSGGFPEPHLSWLENGEELNAINTTVSQDPETELYAVSSKLDFNMTTNHSFMCLIKYGHLRVNQTFNWNTTKQEHFPDNLLPSWAITLISVNGIFVICCLTYCFAPRCRERRRNERLRRESVRPV | 1968 RLU
H18Y/E35D/M47V/V68M/L85M (protein, UniProt P33681 35-288, looked up, variant H18Y E35D M47V V68M L85M) T-lymphocyte activation …: VIHVTKEVKEVATLSCGYNVSVEELAQTRIYWQKDKKMVLTMMSGDVNIWPEYKNRTIFDITNNLSIMILALRPSDEGTYECVVMKYEKDAFKREHLAEVTLSVKADFPTPSISDFEIPTSNIRRIICSTSGGFPEPHLSWLENGEELNAINTTVSQDPETELYAVSSKLDFNMTTNHSFMCLIKYGHLRVNQTFNWNTTKQEHFPDNLLPSWAITLISVNGIFVICCLTYCFAPRCRERRRNERLRRESVRPV | 2575 RLU
